Target: D(1A) dopamine receptor (Homo sapiens) (UniProt P21728)
Sequence (P21728 whole entry, looked up): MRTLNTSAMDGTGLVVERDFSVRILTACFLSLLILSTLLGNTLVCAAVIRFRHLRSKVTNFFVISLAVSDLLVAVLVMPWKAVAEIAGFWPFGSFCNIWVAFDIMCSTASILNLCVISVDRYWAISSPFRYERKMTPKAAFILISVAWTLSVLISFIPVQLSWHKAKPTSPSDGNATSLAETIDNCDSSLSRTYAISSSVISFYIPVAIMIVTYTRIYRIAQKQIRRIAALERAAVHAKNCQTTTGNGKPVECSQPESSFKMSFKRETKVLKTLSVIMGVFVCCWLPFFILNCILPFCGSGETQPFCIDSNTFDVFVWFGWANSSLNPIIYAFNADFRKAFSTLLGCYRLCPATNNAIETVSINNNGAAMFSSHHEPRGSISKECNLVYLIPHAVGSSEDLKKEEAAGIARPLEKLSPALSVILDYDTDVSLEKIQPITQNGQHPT
Experiment: NVS_GPCR_hDRD1: NovaScreen (NVS) G Protein-Coupled Receptor Assay for human Dopamine Receptor D1 (DRD1) (AID 2283269)
Results filed as inconclusive are left out. Active and inactive are the calls of the source. How the source made its calls: active means hit-call score of the fitted dose curve at least 0.9, where 1 is the maximum; inconclusive means response in the unintended direction; inactive means score below 0.9.
Pick from true (active), false (inactive) when you respond.

Inquiry: Look up the recorded call for `N#Cc1c(-c2ccc(Cl)cc2)[nH]c(C(F)(F)F)c1Br` in this test.
Reply text: false

Inquiry: # iterate: `CSC(C)(C)C=NO`
Reply text: false

Inquiry: Field entry: `CC(C)Nc1ccc(Nc2ccccc2)cc1`
Reply text: true

Inquiry: Try `Nc1ccc([N+](=O)[O-])cc1Cl` next.
Reply text: false

Inquiry: Also, `Oc1ccccc1Br` please.
Reply text: false

Inquiry: Request: `O=c1ssc(Cl)c1Cl`
Reply text: true

Inquiry: Repeat with `COP(N)(=S)OC`
Reply text: false
